- Assayed system: recombinant human STIM1 and Orai1 (HEK-293 cells) (Homo sapiens, UniProt Q96D31)
- Sequence (Q96D31 whole entry): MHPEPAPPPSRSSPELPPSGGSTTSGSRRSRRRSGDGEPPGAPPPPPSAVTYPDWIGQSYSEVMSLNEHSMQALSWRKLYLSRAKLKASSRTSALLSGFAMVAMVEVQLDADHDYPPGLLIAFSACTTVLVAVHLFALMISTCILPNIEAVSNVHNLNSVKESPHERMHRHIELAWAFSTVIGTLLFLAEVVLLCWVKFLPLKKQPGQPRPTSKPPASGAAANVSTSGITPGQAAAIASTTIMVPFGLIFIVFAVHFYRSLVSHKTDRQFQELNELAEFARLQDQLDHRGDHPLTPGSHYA
- Assay details: Fluorescence-based assay of store-operated calcium entry in Orai1/STIM1 stable cells
- Cond: FLIPR fluo-4, read-out: Orai1/STIM1 (IC50, μmol)
- Description: A. Fluorescence-Based Assay of Store-Operated Calcium Entry in Orai1/STIM1 Stable Cells. […] The day prior to performing the assay Orai1/STIM1 stable cells are plated in 50 μL of complete medium at 90-95% confluence in a 384 well plate. […] The initial baseline fluorescence signal is then measured with a FLIPR^384 (Molecular Devices) plate reader. Calcium entry is initiated by adding 5 μl of 10× CaCl2 (10 mM) in HBSS, and changes in cellular fluorescence are measured with the FLIPR^384 plate reader. […]
As shown below, each of these compounds has a reported IC50 value.

# annotated cases, reported IC50 shown
The compound listed as CCn1nc(C)cc1C(=O)Nc1ccc(-c2cc3c(cc2Cl)OC(F)(F)O3)cn1 [Example 6] shows IC50 equal to > 1200 nM

The compound listed as O=C(Nc1ccc(-c2cc3c(cc2Cl)OC(F)(F)O3)cn1)c1ccnn1C(F)F [Example 13] shows IC50 equal to 600 to 1200 nM

The compound listed as O=C(Nc1ncc(Oc2ccccc2C(F)(F)F)s1)c1c(F)cccc1F [Example 43] shows IC50 equal to > 1200 nM

The compound listed as Cn1nc(C(F)(F)F)cc1-c1cnc(NC(=O)c2c(Cl)c(C(F)(F)F)nn2C)cn1 [Example 41] shows IC50 equal to > 1200 nM

Further cases:
The compound listed as Cc1cc2c(cc1-c1cnc(NC(=O)c3c(Cl)c(C(F)(F)F)nn3C)cn1)OC(F)(F)O2 [Example 37] shows IC50 equal to 600 to 1200 nM

The compound listed as Cc1nc(C)c(C(=O)Nc2ccc(-c3cc4c(cc3Cl)OC(F)(F)O4)cn2)o1 [Example 21] shows IC50 equal to > 1200 nM
